Biological target: T1, PDZD7_3, Q9H5P4
T1 sequence (Q9H5P4 857-944, limits assumed, looked up): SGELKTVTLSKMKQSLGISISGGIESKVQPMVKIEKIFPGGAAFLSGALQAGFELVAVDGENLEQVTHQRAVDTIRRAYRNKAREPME
Experiment: holdup assay
Set-up: key: below the threshold = too weak to quantify, mostly under pKd 3.1 to 4
Details: plain residues with an end cap or a label only (N-terminal biotin on a linker: ado-ado)
reported.metric: pKd

binder="AEASVACSLC [PTGIR, P43119]" reported_metric=pKd reported_value=4.47
binder="EKCGKEFSEF [PRKACA, P17612]" reported_metric=pKd reported_value="below the threshold"
binder="AAVENKVTDL [PLXNB1, O43157]" reported_metric=pKd reported_value=4.91
binder="AQRARSPSDV [GPR12, P47775]" reported_metric=pKd reported_value=3.48
binder="VKRNSKETVV [MARCHF3, Q86UD3]" reported_metric=pKd reported_value=4.82
binder="TNSRHGETTV [FZD2, Q14332]" reported_metric=pKd reported_value=4.26
binder="QSYPSKHDYV [CLDN18, P56856]" reported_metric=pKd reported_value=4.08
binder="NVYGIESVKI [GRIA2, P42262]" reported_metric=pKd reported_value="below the threshold"
binder="ARSAAASNYV [CLDN4, O14493]" reported_metric=pKd reported_value="below the threshold"
binder="NISYRRESAI [KCNJ4, P48050]" reported_metric=pKd reported_value=4.05
binder="LESTTVGTSV [KARS1, Q15046]" reported_metric=pKd reported_value=3.82
binder="SLNANEVEWF [RNF130, Q86XS8]" reported_metric=pKd reported_value=4.15
binder="PPGKHLVTEV [KCNA7, Q96RP8]" reported_metric=pKd reported_value=5.2
binder="SPDRDRESIV [SCN5A, Q14524]" reported_metric=pKd reported_value=4.63
binder="KPGKGSETVV [FZD4, Q9ULV1]" reported_metric=pKd reported_value=4.67
binder="EIPAQSPTCV [FZD10, Q9ULW2]" reported_metric=pKd reported_value=4.3
binder="GTGYDRKDYV [CLDN3, O15551]" reported_metric=pKd reported_value=4
binder="QKAPTKEFYA [SDC2, P34741]" reported_metric=pKd reported_value="below the threshold"
binder="KRPEMTSSSV [MUC3B, MUC3A, Q02505;Q9H195]" reported_metric=pKd reported_value="below the threshold"
binder="EDLEDEWEVI [TECPR2, O15040]" reported_metric=pKd reported_value=3.92
binder="APIAGFSSFV [SDK2, Q58EX2]" reported_metric=pKd reported_value=4.63
binder="NTANRRTTPV [CACNG2, Q9Y698]" reported_metric=pKd reported_value=4.19
binder="ILRKSTTTTV [PRR16, Q569H4]" reported_metric=pKd reported_value=4.67
binder="SFISKKEWYV [NECTIN1, Q15223]" reported_metric=pKd reported_value="below the threshold"
binder="SVTSERETNI [SLC16A7, O60669]" reported_metric=pKd reported_value=4.69
binder="REEPDHSTEV [CCRL2, O00421]" reported_metric=pKd reported_value=4.31
binder="PYSESDDDWC [CACNA1A, O00555]" reported_metric=pKd reported_value="below the threshold"
binder="VLYPREGTEV [FOXI1, Q12951]" reported_metric=pKd reported_value=3.99
binder="GEDRSPPTAL [MKNK1, Q9BUB5]" reported_metric=pKd reported_value=3.8
binder="QRPYRRGSEI [KCNJ18, B7U540]" reported_metric=pKd reported_value="below the threshold"
binder="DGVNEKVSCV [HTR2A, P28223]" reported_metric=pKd reported_value=4.72
binder="ELSATVTTDC [TRIP6, Q15654]" reported_metric=pKd reported_value=3.8
